- Test details: Cytotoxicity against human CIP4 cells
- Format: cell-based
Measured log10 of CC50 values are reported for all entries that follow.
Recorded CC50 (log10, µM)

Example compounds with recorded log10 of CC50:
In: State its log10 of CC50: `NC(=O)c1c2c(c(O)c3ncc(Cc4cccc(Cl)c4F)cc13)C(=O)N1CCCC[C@@H]21`
Out: 0.71

In: Entry `N#Cc1c2c(c(O)c3ncc(Cc4cccc(Cl)c4F)cc13)C(=O)N1CCC[C@H]21` needs its log10 of CC50 filled in; supply it.
Out: 0.86

In: Could you please provide reported log10 of CC50 for `N#Cc1c2c(c(O)c3ncc(Cc4cccc(Cl)c4F)cc13)C(=O)N1CCC[C@H]1C2` ? Thanks!
Out: 1.70

Next:
In: Give me measured log10 of CC50, please, for this compound: `NC(=O)c1c2c(c(O)c3ncc(Cc4cccc(Cl)c4F)cc13)C(=O)N1CCC[C@H]1C2`
Out: 1.57

In: Report log10 of CC50 for `N#Cc1c2c(c(O)c3ncc(Cc4cccc(Cl)c4F)cc13)C(=O)N1CCCC[C@H]21`
Out: 0.85

In: Consider the compound `N#Cc1c2c(c(O)c3ncc(Cc4cccc(Cl)c4F)cc13)C(=O)N1CCC[C@@H]1C2` and give its recorded log10 of CC50.
Out: 1.11

###

- Test details: Oral bioavailability in Sprague-Dawley rat at 5 mg/kg after 24 hrs by LC-MS/MS analysis
- Format: ADME, organism-based
- Conditions used: in vivo
Measured property: bioavailability (%)
Give just the number in %; leave the unit off.

In: Quick one: give measured bioavailability for `NC(=O)c1c2c(c(O)c3ncc(Cc4cccc(Cl)c4F)cc13)C(=O)N1CCCC[C@H]21`
Out: 2

###

- Test system: Human immunodeficiency virus type 1 integrase (Human immunodeficiency virus 1), Q7ZJM1 [G140S,Q148H]
- Test details: Inhibition of pseudotype HIV1 integrase G140S/Q148H double mutant strand transfer activity in HIV1 infected human CIP4 cells assessed as ratio of IC50 for pseudotype HIV1 integrase G140S/Q148H double mutant strand transfer activity to IC50 for pseudotype HIV1 integrase strand transfer activity after 2 days by luciferase reporter gene assay
- Assay type: cell-based
Quick reference for Ratio IC50 among some molecules
Lab note: jot the number down without any unit.

Worked cases, Ratio IC50 given:
In: Answer with reported Ratio IC50 of `O=C1c2c(cc3cc(Cc4cccc(Cl)c4F)cnc3c2O)CN2CCCN12`
Out: 2.3

In: State its Ratio IC50: `NC(=O)c1c2c(c(O)c3ncc(Cc4cccc(Cl)c4F)cc13)C(=O)N1CCCC[C@@H]21`
Out: 3.7

New cases:
In: Fill in reported Ratio IC50 for this entry: `N#Cc1c2c(c(O)c3ncc(Cc4cccc(Cl)c4F)cc13)C(=O)N1CCCC[C@H]21`
Out: 17

In: Given `N#Cc1c2c(c(O)c3ncc(Cc4cccc(Cl)c4F)cc13)C(=O)N1CCC[C@@H]1C2` , respond with its Ratio IC50.
Out: 1.5

In: In one line, give reported Ratio IC50 of the entry `N#Cc1c2c(c(O)c3ncc(Cc4cccc(Cl)c4F)cc13)C(=O)N1CCC[C@H]1C2` .
Out: 2.8

In: Find the measured Ratio IC50 of `N#Cc1c2c(c(O)c3ncc(Cc4cccc(Cl)c4F)cc13)C(=O)N1CCC[C@@H]21` and report it.
Out: 131

In: Look up Ratio IC50 of `NC(=O)c1c2c(c(O)c3ncc(Cc4cccc(Cl)c4F)cc13)C(=O)N1CCCC[C@H]21` and report it.
Out: 2.8
